- test_name: Cmax in healthy human at 400 mg/day, po administered for 21 days measured at day 6
- Format: ADME, organism-based
- Design: dose 400 mg/day, route oral
- experimental_context: in vivo
readout_name: Cmax (ng/mL)
Write the value in ng/mL as a bare number.

Form field: reported Cmax of O=C(NN1C(=O)[C@@H]2[C@@H]3C=C[C@@H]([C@H]4C[C@@H]34)[C@@H]2C1=O)c1ccc(C(F)(F)F)cc1
1300

====

- test_name: AUC in healthy human at 400 mg/day, po administered for 21 days measured at day 21
- Format: ADME, organism-based
- Design: dose 400 mg/day, route oral
- experimental_context: plasma
readout_name: AUC at 504 h (ng·h/mL)
Write the value in ng·h/mL as a bare number.

Form field: reported AUC at 504 h of O=C(NN1C(=O)[C@@H]2[C@@H]3C=C[C@@H]([C@H]4C[C@@H]34)[C@@H]2C1=O)c1ccc(C(F)(F)F)cc1
16200
